molecular target: Fc-fusion protein of human PSMA (hPSMA-Fc) (Homo sapiens, UniProt Q04609); construct: purchased Acro Biosystems PSA-H5264; assay: Surface plasmon resonance assay (Biacore T200, single cycle kinetic); assay type: binding; conditions: SPR, hPSMA-Fc, single cycle kinetic, 25° C.; category; read-out: pKD CAT (converted)
Sequence (Q04609 44-750 limits assumed): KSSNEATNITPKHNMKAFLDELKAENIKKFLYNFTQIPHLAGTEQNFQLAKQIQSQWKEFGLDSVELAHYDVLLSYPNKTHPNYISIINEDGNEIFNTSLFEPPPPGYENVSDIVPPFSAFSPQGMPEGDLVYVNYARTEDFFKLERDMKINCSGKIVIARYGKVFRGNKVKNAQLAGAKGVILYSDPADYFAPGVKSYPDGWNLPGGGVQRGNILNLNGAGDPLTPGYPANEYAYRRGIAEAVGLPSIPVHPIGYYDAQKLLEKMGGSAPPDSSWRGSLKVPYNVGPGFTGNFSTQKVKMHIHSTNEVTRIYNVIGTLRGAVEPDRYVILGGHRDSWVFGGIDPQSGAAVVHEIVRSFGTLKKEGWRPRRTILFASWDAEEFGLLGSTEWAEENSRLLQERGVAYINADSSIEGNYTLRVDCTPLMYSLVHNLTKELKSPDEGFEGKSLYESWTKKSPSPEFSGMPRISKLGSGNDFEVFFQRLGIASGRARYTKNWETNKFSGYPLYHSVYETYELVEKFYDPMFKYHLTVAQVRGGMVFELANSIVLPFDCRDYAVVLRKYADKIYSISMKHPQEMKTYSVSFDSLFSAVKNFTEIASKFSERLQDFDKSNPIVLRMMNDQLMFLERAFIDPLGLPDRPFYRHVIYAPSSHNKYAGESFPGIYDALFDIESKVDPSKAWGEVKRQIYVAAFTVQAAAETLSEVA
Numbered stars: 1 amine (or outer) side, 2 acyl side, 3 side chain; on linkers, the order of the positions; unused ones are H or OH. Bridge positions count the residues as written; N and C are the ends. Square brackets hold non-standard residues; d marks the D form. Peptide text beside a SMILES is read from it. * marks the point of attachment. DOTA = O=C(O)CN1CCN(CC(=O)O)CCN(CC(=O)*)CCN(CC(=O)O)CC1; Phe(4-Cl) = N[C@@H](Cc1ccc(Cl)cc1)C(=O)O; X1 = O=C(CC1CCN([*:1])CC1)[*:2]; Cit = NC(=O)NCCC[C@H](N)C(=O)O; Tle = CC(C)(C)[C@H](N)C(=O)O; Pyridin(2-yl) = c1ccc(*)nc1; Nle = CCCC[C@H](N)C(=O)O; Orn = NCCC[C@H](N)C(=O)O; Aib = CC(C)(N)C(=O)O; CO = O=C([*:1])[*:2]; NHBu = CCCCN*
Entries and their Kd

Use the examples below as a reference point.
- CCCC[C@@H]1NC(=O)[C@@H](NC(=O)[C@H](Cc2ccc(Cl)cc2)NC(=O)C(C)(C)NC(=O)[C@@H](NC(C)=O)[C@@H](C)O)CSSC[C@@H](C(=O)N[C@H](C(=O)N[C@H](C(N)=O)[C@@H](C)O)C(C)(C)C)NC(=O)[C@H](CC(N)=O)NC(=O)C(C)(C)NC(=O)[C@H](CCCNC(=N)N)NC1=O [PSM-0205] (Ac-T[Aib][Phe(4-Cl)]C[Nle]R[Aib]NC[Tle]T-NH2; disulfide 4-9): < 12.6 nM
- CC(=O)N[C@H](C(=O)NC(C)(C)C(=O)N[C@@H](Cc1ccc(Cl)cc1)C(=O)N[C@H]1CSSC[C@@H](C(=O)N[C@H](C(=O)N[C@H](C(N)=O)[C@@H](C)O)C(C)(C)C)NC(=O)[C@H](Cc2c[nH]c3ccccc23)NC(=O)C(C)(C)NC(=O)[C@H](CCCNC(N)=O)NC(=O)[C@H](CCCCN)NC1=O)[C@@H](C)O [PSM-0238] (Ac-T[Aib][Phe(4-Cl)]CK[Cit][Aib]WC[Tle]T-NH2; disulfide 4-9): < 12.6 nM

# ---- query compound ----
get_value(item= CCCCNC(=O)N[C@H](C(=O)NC(C)(C)C(=O)N[C@@H](Cc1ccccc1)C(=O)N[C@H]1CSSC[C@@H](C(=O)N[C@H](C(=O)N[C@H](C(=O)N2CCC(CC(=O)N[C@H](CCCCNC(=O)CN3CCN(CC(=O)O)CCN(CC(=O)O)CCN(CC(=O)O)CC3)C(N)=O)CC2)[C@@H](C)O)C(C)(C)C)NC(=O)[C@H](CC(N)=O)NC(=O)C(C)(C)NC(=O)[C@H](CCCNc2ccccn2)NC(=O)[C@H](CCCCN)NC1=O)[C@@H](C)O [PSM-0258] ({NHBu-CO}-T[Aib]FCK[Orn](Pyridin(2-yl))[Aib]NC[Tle]T[X1][dK](DOTA)-NH2; disulfide 4-9) , readout=Kd) returns 126 to 501 nM
